# target.system: T1, human TMEM106B (human, UniProt Q9NUM4 2-274)
# T1 construct: Full-length, on transiently transfected HEK293 cells, or natively expressed on HeLa, U251 and A549 cells; also called huTMEM106B; huTMEM
# method.summary: FACS HeLa;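 also: flow cytometry of cells incubated with hybridoma supernatant or purified antibody at 10 µg/ml for 1 h on ice, propidium iodide–positive dead cells gated out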
Exercise: state measured MFI for each of the binders provided.
Just the number.

Find the recorded MFI belonging to anti-TMEM106B antibody TM-11 (antibody, V domains shown) VH: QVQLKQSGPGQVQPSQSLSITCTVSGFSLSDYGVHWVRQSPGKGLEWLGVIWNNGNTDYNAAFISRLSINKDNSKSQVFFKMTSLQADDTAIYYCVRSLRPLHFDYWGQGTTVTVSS VL: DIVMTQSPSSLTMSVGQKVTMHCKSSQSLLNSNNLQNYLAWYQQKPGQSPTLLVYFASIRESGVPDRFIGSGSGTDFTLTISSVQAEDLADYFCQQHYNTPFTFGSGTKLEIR and report it.
1870

Moving on to anti-TMEM106B antibody TM-45 (antibody, V domains shown) VH: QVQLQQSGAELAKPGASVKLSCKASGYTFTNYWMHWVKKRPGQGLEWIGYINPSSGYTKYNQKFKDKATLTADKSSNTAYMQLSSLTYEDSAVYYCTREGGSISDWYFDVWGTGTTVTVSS VL: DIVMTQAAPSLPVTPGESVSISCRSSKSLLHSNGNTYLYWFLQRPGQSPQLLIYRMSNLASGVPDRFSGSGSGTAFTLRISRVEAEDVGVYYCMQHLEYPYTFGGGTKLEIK
191

Moving on to anti-TMEM106B antibody TM-25 (antibody, V domains shown) VH: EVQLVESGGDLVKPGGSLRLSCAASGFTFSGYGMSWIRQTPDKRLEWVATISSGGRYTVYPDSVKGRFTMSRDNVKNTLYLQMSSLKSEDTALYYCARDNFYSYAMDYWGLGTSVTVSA VL: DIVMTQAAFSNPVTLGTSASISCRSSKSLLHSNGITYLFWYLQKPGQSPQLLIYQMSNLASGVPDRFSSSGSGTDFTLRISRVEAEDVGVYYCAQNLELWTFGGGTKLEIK
2560

Moving on to anti-TMEM106B antibody TM-12 (antibody, V domains shown) VH: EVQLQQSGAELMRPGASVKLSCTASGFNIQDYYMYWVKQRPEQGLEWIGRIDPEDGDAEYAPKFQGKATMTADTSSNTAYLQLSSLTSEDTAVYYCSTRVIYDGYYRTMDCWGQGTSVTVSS VL: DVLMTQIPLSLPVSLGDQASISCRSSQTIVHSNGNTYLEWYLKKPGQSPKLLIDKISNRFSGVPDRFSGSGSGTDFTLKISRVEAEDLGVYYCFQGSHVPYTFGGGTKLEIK
2660

Moving on to anti-TMEM106B antibody TM-28 (antibody, V domains shown) VH: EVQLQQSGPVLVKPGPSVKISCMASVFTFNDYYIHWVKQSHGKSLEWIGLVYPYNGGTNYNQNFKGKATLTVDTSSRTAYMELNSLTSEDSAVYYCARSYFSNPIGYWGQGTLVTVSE VL: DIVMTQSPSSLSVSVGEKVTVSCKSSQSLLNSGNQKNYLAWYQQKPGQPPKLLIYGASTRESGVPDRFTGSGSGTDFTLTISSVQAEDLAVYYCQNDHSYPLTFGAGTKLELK
2790

Moving on to anti-TMEM106B antibody TM-1 (antibody, V domains shown) VH: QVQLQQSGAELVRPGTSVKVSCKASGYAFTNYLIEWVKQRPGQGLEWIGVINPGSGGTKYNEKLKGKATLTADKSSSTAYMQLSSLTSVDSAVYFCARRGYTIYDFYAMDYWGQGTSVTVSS VL: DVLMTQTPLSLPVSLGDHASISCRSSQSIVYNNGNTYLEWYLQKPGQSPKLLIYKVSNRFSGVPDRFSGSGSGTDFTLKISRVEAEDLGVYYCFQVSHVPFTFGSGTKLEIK
253

Moving on to anti-TMEM106B antibody TM-27 (antibody, V domains shown) VH: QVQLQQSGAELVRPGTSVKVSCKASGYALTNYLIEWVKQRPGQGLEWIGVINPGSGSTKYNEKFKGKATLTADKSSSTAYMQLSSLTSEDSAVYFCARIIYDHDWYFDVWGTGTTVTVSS VL: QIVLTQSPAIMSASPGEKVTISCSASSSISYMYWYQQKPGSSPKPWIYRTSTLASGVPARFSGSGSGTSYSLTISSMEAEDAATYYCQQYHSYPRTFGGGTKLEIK
2960

Moving on to anti-TMEM106B antibody TM-14 (antibody, V domains shown, mouse IgG from hybridoma) VH: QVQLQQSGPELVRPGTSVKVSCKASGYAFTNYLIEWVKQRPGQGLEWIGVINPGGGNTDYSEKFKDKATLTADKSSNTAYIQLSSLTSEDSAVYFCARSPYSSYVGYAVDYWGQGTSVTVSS VL: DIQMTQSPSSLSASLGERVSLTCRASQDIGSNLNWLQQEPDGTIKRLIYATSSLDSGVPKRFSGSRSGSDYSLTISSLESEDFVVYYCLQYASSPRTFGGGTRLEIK
307

Moving on to anti-TMEM106B antibody TM-31 (antibody, V domains shown, mouse IgG from hybridoma) VH: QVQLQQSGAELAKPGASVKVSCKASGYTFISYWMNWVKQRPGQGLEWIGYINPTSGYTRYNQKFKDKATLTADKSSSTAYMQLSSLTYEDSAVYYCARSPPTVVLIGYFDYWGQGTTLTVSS VL: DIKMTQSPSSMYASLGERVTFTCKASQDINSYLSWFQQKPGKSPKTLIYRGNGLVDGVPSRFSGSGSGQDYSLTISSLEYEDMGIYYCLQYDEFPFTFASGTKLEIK
799

Moving on to anti-TMEM106B antibody TM-3 (antibody, V domains shown) VH: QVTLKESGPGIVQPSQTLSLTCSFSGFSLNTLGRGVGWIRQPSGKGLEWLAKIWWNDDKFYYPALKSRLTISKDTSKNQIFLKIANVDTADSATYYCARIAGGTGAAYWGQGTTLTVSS VL: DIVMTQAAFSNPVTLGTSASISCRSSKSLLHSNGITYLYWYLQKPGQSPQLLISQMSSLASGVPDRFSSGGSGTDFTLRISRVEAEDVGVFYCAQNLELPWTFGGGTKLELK
2690
